Every entry's value here was drawn from patent US20130252951A1.

system-under-test: human CCR2 (Homo sapiens, UniProt P41597)
Sequence (P41597 whole entry): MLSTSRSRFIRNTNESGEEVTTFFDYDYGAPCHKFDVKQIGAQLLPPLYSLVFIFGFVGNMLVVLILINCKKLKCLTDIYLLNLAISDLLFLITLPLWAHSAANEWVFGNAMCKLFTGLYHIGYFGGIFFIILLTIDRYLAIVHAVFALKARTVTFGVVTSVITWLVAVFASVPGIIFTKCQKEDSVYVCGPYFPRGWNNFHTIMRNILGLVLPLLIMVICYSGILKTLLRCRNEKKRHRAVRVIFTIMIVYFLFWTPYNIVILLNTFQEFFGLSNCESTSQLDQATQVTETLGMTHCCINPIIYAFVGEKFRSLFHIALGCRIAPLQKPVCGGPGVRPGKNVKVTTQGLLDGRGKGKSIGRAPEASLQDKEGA
experiment-notes: CCR2 functional calcium assay (FLIPR calcium flux, hMCP-1 challenge)
Type: cell-based
Set-up: expressed in transfected cells; host or cells: HEK293 EBNA cells
test-settings: reference antagonist; read-out: fKi
quantity-measured: Ki
Put down the number, then write its unit next to it.

Q. Using the record for O=C1Nc2ccccc2C2(CCN(CCc3ccc(C(F)(F)F)cc3)CC2)O1 [RS102895, reference compound] , report its Ki.
A. 84 nM

====

system-under-test: human CCR2 (Homo sapiens)
experiment-notes: CCR2 functional calcium assay (FLIPR calcium flux, hMCP-1 challenge)
Type: cell-based
Set-up: expressed in transfected cells; host or cells: HEK293 EBNA cells
test-settings: HEK293 EBNA cells transfected with human CCR2, hMCP-1 challenge; read-out: Functional CCR2 fKi
quantity-measured: Ki

# example entries with known answers
compound=CCc1nc2ccnn2c(O)c1Oc1ccc(Cl)c(Cl)c1 quantity_measured=Ki assay_result="< 10 nM"
compound=O=C(O)c1nc2ccnn2c(O)c1Cc1cccc(Cl)c1 quantity_measured=Ki assay_result="100 to 1000 nM"
compound=CCCc1nc2ccnn2c(O)c1Cc1ccc(Cl)c(Cl)c1 quantity_measured=Ki assay_result="< 10 nM"
compound=CC(C)c1nc2ccnn2c(O)c1Cc1ccc(F)c(C(F)(F)F)c1 quantity_measured=Ki assay_result="< 10 nM"
compound="Oc1c(Cc2ccc(Cl)c(Cl)c2)c(C2CCCO2)nc2ccnn12 (stereo not shown)" quantity_measured=Ki assay_result="< 10 nM"
compound=Oc1c(Cc2cccc(C(F)(F)F)c2)c(C2CC2)nc2ccnn12 quantity_measured=Ki assay_result="< 10 nM"
compound=COCCNC(=O)c1cnn2c(O)c(Cc3ccc(Cl)c(Cl)c3)c(C)nc12 quantity_measured=Ki assay_result="10 to 100 nM"
compound=COCCNC(=O)c1cnn2c(O)c(Cc3ccc(C)cc3)c(C)nc12 quantity_measured=Ki assay_result="100 to 1000 nM"

Q. Please state recorded Ki (tested on human CCR2 (Homo sapiens)) of Cc1noc(-c2nc3ccnn3c(O)c2Cc2cccc(F)c2)n1
A. 100 to 1000 nM

Q. Follow-up item: Cc1nc2c(Br)cnn2c(O)c1Cc1ccc(Cl)cc1
A. 10 to 100 nM

Q. Do the same for Cc1nc2ccnn2c(O)c1C(C)c1ccc(Cl)cc1 (stereo not shown) please
A. 100 to 1000 nM

Q. Now the compound COCc1nc2ccnn2c(O)c1Cc1ccc(Cl)cc1
A. 10 to 100 nM
